Biological target: TDP-43 (Homo sapiens, UniProt Q13148 1-414)
Sequence (Q13148 whole entry): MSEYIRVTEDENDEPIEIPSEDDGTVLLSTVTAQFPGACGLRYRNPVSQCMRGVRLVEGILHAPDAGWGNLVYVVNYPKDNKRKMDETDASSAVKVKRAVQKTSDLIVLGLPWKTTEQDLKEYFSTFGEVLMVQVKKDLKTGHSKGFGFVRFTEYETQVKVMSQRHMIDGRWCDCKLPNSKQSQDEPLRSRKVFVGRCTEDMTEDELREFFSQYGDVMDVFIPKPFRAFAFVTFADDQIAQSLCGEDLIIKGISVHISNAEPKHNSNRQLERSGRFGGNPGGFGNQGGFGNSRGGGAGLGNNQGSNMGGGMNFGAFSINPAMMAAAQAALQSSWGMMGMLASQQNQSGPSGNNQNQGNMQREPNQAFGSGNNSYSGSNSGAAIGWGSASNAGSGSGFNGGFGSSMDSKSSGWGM
Test: RNA Bind-n-Seq with designed 260-mer pool; 25 mM Tris-HCl, 150 mM KCl, 3 mM MgCl2, BSA (printed 500 mg/mL), 20 units/mL SUPERase IN; pH not stated; 500 nM RNA pool, 1 h, 4 C; TDP-43 5, 50, 500 nM; high values mean tight binding
Details: protein: recombinant; tags: SBP (GST cleaved off with PreScission; pGEX-GST-SBP)
The full ranking holds about 9,900 sequences; the median of “r (bound/input frequency ratio)” is about 0.7, and the highest 2% start at about 6.5. For the sample, the highest values were picked, then their nearest neighbours and some sequences at random.
binding signal values for the binders below.

# annotated cases, reported binding signal shown
binder	binding signal
ENSMUSG00000042529.155|Kcnj12|40:44 (ssRNA) RNA: GGGAGUUCUACAGUCCGACGAUCGCUUCGAUAUCCGCAUGCUAAGAGUGGGUGCUUCUUAGAAAAGGACACUCAGGAAAUUACAUACGGGUCUGGGUCCCACAUCCCCAGGAAGUGGGUCAGCCCCACGUCCCCCGCUGGACUCACAGCUUGAGUUGUGCCUUAGAGACUCUGGUUGUCUGGCUUCCGUCAUUUCUGGUUUUCUCAGACUUGUUUAAUCUUUCCCUACUGCCCUAAGUCCACUCAUGAAGCUCCCCAGGCCCUUCUGAGAUUGCAGAGGCUGCUUGCUCAUAGCCAUGACCCUCUCUUGCGGUCGCACUAGUGUGGAAUUCUCGGGUGUCAAGG	0.524 R (bound/input frequency ratio)
ENSMUSG00000061578.1454|Ksr2 (ssRNA) RNA: GGGAGUUCUACAGUCCGACGAUCGCUUCGAUAUCCGCAUGCUAGGGUAAAUGAAUGGAUAGGUAUGUGAAUGAAUGGAUGAUGGAUGAAUGGAUGGGUAGGUGGGUAGAUAGGUAUAUGAAUGAAUGGAUGAAUGGAUGGGUGAAUGGAUGGAUAGGUAUGUGAAUAAAUGGAUGGAUGGAUGGAUUGAUUUGUGAAUGAAUGGAUGAAUGGAUGGGUAGGUGGGUGGAUGCAUAGGCAAGUAGAUGAAUGAAUAUGUGGGUAGAAGGGUGAGUGGGUGGAUGAAUGGAUGGAUAGGUUGGUACUCUUGCGGUCGCACUAGUGUGGAAUUCUCGGGUGUCAAGG	2.48 R (bound/input frequency ratio)
ENSMUSG00000031028.156|Tub (ssRNA) RNA: GGGAGUUCUACAGUCCGACGAUCGCUUCGAUAUCCGCAUGCUAAGCUCCCAUUAUUGCCAGCAUGCCAUGAUCAGUGAGGGCUGUGUGCCAUGCUUAGGGGGAUGGCGCAGGGUGAGGGGAGCAGAGGAUAUUUUAGGGCCACAAGAGCUCAGAGGUAGCGGACCUCUGUGUGGUUCACCAACAGCAAUGCUGAUCCCUGAGUAUAGGGCACAUGUCUCUUGGUUACCUCACUGGUUAAUGGCAGAGUUGAGAACCUCAAAUUCUUUUGUUCCUACUGUUGCCCAGAAACUAGACUCUCUGACCUCUUGCGGUCGCACUAGUGUGGAAUUCUCGGGUGUCAAGG	0.518 R (bound/input frequency ratio)

Continue with the binder presented below.
// returns reported binding signal for input ENSMUSG00000061578.1443|Ksr2 (ssRNA) RNA: GGGAGUUCUACAGUCCGACGAUCGCUUCGAUAUCCGCAUGCUAGCAAGUAGGAUGGAUGGAUGAGUGAGUGGAUAGGUAGGUAUAUAAAUGGAUGGAUGGGUGAUGGAUGGGUAAAUGAAUGGAUAGGUAUGUGAAUGAAUGGAUGAUGGAUGAAUGGAUGGGUAGGUGGGUAGAUAGGUAUAUGAAUGAAUGGAUGAAUGGAUGGGUGAAUGGAUGGAUAGGUAUGUGAAUAAAUGGAUGGAUGGAUGGAUUGAUUUGUGAAUGAAUGGAUGAAUGGAUGGGUAGGUGGGUGGAUGCAUAGGCUCUUGCGGUCGCACUAGUGUGGAAUUCUCGGGUGUCAAGG
9.18 R (bound/input frequency ratio)
